B1: EEHEE_rd3_1049 (parent)
chain: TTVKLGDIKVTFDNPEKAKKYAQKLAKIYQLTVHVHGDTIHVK

# Variants of: B1
# assay_info: folding stability dG (cDNA display proteolysis); higher = more stable
# condition_info: PBS, room temperature
param class (str): category from folding stability dG; see ranges low range (below 0.9 kcal/mol), mid range (0.9 kcal/mol to below 2 kcal/mol), high range (2 kcal/mol or more)

{"columns": ["sequence_code", "assigned_label"],
 "data": [
  ["TTVKLWDIKVTFDNPEKAKKYAQKLAKIYQLTVHVHGDTIHVK", "high range"],
  ["TTVKLGDIKVTEDNPEKAKKYAQKLAKIYQLTVHVHGDTIHVK", "low range"],
  ["MTVKLGDIKVTFDNPEKAKKYAQKLAKIYQLTVHVHGDTIHVK", "high range"],
  ["TTVKLGDIKVTFDNPGKAKKYAQKLAKIYQLTVHVHGDTIHVK", "mid range"],
  ["TTVKLGDIKVTFDNPEKPKKYAQKLAKIYQLTVHVHGDTIHVK", "low range"],
  ["TTVKLGDIKVTFANPEKAKKYAQKLAKIYQLTVHVHGDTIHVK", "high range"],
  ["TTVKLGDIKVTFDNPEKAKKYAQKLAKIYQLTVHVHGDTIHVA", "high range"],
  ["TTVILGDIKVTFDNPEKAKKYAQKLAKIYQLTVHVHGDTIHVK", "high range"],
  ["TTVKLGDIKVTFDNPEKAKKYAQKLAKIYQLTVHVHGDTIHRK", "low range"],
  ["TTVKLGDIKVTFDFPEKAKKYAQKLAKIYQLTVHVHGDTIHVK", "mid range"],
  ["TTVKLGDIKVTFDNPEKAKKYAQKLAKIYQLTVHVHIDTIHVK", "mid range"],
  ["TTVKLGDIKVTFDNPEKAKLYAQKLAKIYQLTVHVHGDTIHVK", "high range"],
  ["TTEKLGDIKVTFDNPEKAKKYAQKLAKIYQLTVHVHGDTIHVK", "low range"],
  ["TTWKLGDIKVTFDNPEKAKKYAQKLAKIYQLTVHVHGDTIHVK", "low range"],
  ["TTVKLGDIKETFDNPEKAKKYAQKLAKIYQLTVHVHGDTIHVK", "low range"],
  ["TTVKLGDIKVTFDNPEKAKKYAQKLAKIYQLTVHVHGDTIHEK", "low range"],
  ["TTVKLGDIKVTFDNPEKAKKYAQKLAKIYQLTVGVHGDTIHVK", "low range"],
  ["TTVKLGDIKVTFDNPEKAKKYAQKLAKIYQLTVLVHGDTIHVK", "high range"],
  ["TTVKLGDIKVTFDNPEKAKKYAQKLAKIYILTVHVHGDTIHVK", "mid range"],
  ["WTVKLGDIKVTFDNPEKAKKYAQKLAKIYQLTVHVHGDTIHVK", "high range"],
  ["TTVQLGDIKVTFDNPEKAKKYAQKLAKIYQLTVHVHGDTIHVK", "high range"]
]}

Where these numbers come from: the MegaScale stability set (Tsuboyama et al. 2023)
